Values compiled from ChEMBL document CHEMBL1135262.

Reported Ki values, Serine protease 1 (Bos taurus, UniProt P00760).
Answer with a number only, understood to be in nM.

Data request: So what Ki did CS(=O)(=O)N[C@@H](C(=O)N1CCC[C@H]1C(=O)NCc1ccc(/C(N)=N/N)s1)C(c1ccccc1)c1ccccc1 get with Serine protease 1 (Bos taurus, UniProt P00760)?
Data returned: 12

Data request: Field entry: N=C(N)c1ccc(CNC(=O)[C@@H]2CCCN2C(=O)[C@H](NS(N)(=O)=O)C(c2ccccc2)c2ccccc2)cc1.O=C(O)C(F)(F)F
Data returned: 0.3

Data request: Field entry: N=C(N)c1ccc(CNC(=O)[C@@H]2CCCN2C(=O)[C@H](NS(=O)(=O)O)C(c2ccccc2)c2ccccc2)cc1.O=C(O)C(F)(F)F
Data returned: 4.4

Data request: Field entry: N=C(NN)c1ccc(CNC(=O)[C@@H]2CCCN2C(=O)[C@H](NCC(=O)O)C(c2ccccc2)c2ccccc2)s1
Data returned: 1100

Data request: Field entry: N=C(N)c1ccc(CNC(=O)[C@@H]2CCCN2C(=O)[C@H](NS(=O)(=O)NC2CCCCC2)C(c2ccccc2)c2ccccc2)cc1.O=C(O)C(F)(F)F
Data returned: 0.25

Data request: Field entry: N=C(N)c1ccc(CNC(=O)[C@@H]2CCCN2C(=O)[C@H](Nc2ccccc2)C(c2ccccc2)c2ccccc2)cc1.O=C(O)C(F)(F)F
Data returned: 1.5
